experiment: Oral bioavailability in cynomolgus monkey at 30 mg/kg; assay type: ADME, organism-based, Macaca fascicularis; settings: in vivo
property-label: bioavailability (%)

>>> test_result("COCCOc1ccn2c(-c3ccc4cccc(O[C@@H]5CCNC[C@H]5F)c4n3)cnc2c1")
6

* * *

Overview of reported Cmax across a group of molecules:
test: Cmax in rat at 10 mg/kg, po; format: ADME, organism-based; design: dose 10 mg/kg, route oral; conditions: in vivo
property-label: Cmax (ng/mL)

>>> test_result("COCCOc1ccn2c(-c3ccc4cccc(OC5CCNCC5)c4n3)cnc2c1")
70
>>> test_result("COCCOc1ccn2c(-c3ccc4cccc(O[C@@H]5CCNC[C@H]5F)c4n3)cnc2c1")
160
>>> test_result("COCCOc1ccn2c(-c3ccc4cccc(O[C@@H]5CCNC[C@@H]5F)c4n3)cnc2c1 (relative stereo)")
70

* * *

target: Platelet-derived growth factor receptor beta (Mus musculus); assay: Inhibition of PDGF-induced PDGFRbeta phosphorylation in mouse NIH3T3 cells incubated for 1 hr prior to PDGF induction measured after 15 mins by fluorescence assay; assay type: cell-based
Sequence (P05622 whole entry): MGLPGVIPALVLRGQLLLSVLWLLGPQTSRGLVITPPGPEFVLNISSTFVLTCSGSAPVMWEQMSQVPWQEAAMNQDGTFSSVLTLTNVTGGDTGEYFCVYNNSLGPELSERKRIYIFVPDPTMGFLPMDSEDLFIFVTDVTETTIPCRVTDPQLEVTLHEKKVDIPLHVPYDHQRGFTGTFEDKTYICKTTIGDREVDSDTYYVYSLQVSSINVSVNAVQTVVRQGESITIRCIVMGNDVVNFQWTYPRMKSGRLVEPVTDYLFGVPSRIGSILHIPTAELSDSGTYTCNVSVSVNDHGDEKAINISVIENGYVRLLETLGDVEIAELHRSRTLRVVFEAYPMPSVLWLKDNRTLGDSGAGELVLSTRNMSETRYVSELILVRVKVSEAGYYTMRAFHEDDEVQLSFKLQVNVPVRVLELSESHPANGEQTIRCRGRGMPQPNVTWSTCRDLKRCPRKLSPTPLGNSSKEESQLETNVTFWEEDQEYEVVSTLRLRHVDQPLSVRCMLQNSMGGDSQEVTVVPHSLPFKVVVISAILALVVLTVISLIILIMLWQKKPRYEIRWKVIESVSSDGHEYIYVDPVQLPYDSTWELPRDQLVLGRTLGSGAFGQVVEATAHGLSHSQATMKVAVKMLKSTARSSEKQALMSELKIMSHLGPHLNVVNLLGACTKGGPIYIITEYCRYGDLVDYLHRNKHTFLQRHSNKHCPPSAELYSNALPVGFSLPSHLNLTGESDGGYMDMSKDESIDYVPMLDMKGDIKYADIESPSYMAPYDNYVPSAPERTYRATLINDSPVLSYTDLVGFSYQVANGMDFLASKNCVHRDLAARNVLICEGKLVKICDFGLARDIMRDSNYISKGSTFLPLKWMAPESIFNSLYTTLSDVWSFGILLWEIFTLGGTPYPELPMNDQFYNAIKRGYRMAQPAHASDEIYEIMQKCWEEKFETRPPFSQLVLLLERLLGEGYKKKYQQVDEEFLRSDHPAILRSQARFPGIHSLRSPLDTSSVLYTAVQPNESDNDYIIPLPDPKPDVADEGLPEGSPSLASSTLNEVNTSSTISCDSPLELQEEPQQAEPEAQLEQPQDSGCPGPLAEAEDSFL
pIC50: −log10 of the molar value.
Listing of recorded pIC50 by entry.
property-label: pIC50

>>> test_result("COCCOc1ccn2c(-c3ccc4cccc(O[C@@H]5CCNC[C@H]5F)c4n3)cnc2c1")
8.52
>>> test_result("COCCOc1ccn2c(-c3ccc4cccc(OCC5CCNC5)c4n3)cnc2c1 (racemic)")
9.00
>>> test_result("COCCOc1ccn2c(-c3ccc4cccc(O[C@H]5CN[C@H](C(=O)OC)C5)c4n3)cnc2c1")
6.02
>>> test_result("COCCOc1ccn2c(-c3ccc4cccc(O[C@H]5CCNC[C@@H]5F)c4n3)cnc2c1")
8.52
>>> test_result("COCCOc1ccn2c(-c3ccc4cccc(O[C@@H]5CNC[C@H]5OC)c4n3)cnc2c1 (racemic)")
8.00
>>> test_result("COCCOc1ccn2c(-c3ccc4cccc(O[C@@H]5CCNC[C@@H]5O)c4n3)cnc2c1 (racemic)")
8.70
>>> test_result("COCCOc1ccn2c(-c3ccc4cccc(O[C@@H]5CCNC[C@H]5F)c4n3)cnc2c1 (relative stereo)")
8.40
>>> test_result("COCCOc1ccn2c(-c3ccc4cccc(OCCN)c4n3)cnc2c1")
6.75
>>> test_result("COCCOc1ccn2c(-c3ccc4cccc(OCC5CNCCO5)c4n3)cnc2c1 (racemic)")
6.80

* * *

assay: Oral bioavailability in rat at 10 mg/kg; assay type: ADME, organism-based; conditions: in vivo
property-label: bioavailability (%)

>>> test_result("COCCOc1ccn2c(-c3ccc4cccc(OC5CCNCC5)c4n3)cnc2c1")
16
>>> test_result("COCCOc1ccn2c(-c3ccc4cccc(O[C@@H]5CCNC[C@H]5F)c4n3)cnc2c1")
28
>>> test_result("COCCOc1ccn2c(-c3ccc4cccc(O[C@@H]5CCNC[C@@H]5F)c4n3)cnc2c1 (relative stereo)")
13

* * *

pIC50: −log10 of the molar value.
Entries with reported pIC50 on Cytochrome P450 2C19 (Homo sapiens, UniProt P33261)
Sequence (P33261 whole entry): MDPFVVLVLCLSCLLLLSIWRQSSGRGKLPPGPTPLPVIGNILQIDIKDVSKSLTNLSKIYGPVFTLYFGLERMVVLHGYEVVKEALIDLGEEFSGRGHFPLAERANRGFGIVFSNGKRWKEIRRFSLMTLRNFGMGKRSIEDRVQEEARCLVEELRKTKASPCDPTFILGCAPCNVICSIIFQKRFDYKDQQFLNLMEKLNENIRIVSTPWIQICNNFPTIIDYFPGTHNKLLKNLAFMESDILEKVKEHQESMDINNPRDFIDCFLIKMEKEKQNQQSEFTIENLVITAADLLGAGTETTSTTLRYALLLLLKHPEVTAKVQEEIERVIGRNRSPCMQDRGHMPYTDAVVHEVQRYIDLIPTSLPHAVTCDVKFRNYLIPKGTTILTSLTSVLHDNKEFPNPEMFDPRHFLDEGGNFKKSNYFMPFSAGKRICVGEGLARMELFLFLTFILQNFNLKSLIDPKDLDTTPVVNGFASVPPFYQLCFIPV
property-label: pIC50

>>> test_result("COCCOc1ccn2c(-c3ccc4cccc(O[C@@H]5CCNC[C@H]5F)c4n3)cnc2c1 (relative stereo)")
"< 5.00"
>>> test_result("COCCOc1ccn2c(-c3ccc4cccc(OC5CCNCC5)c4n3)cnc2c1")
"< 5.00"
